Test system: UV edema in hairless mouse
Experiment: Ultraviolet test on hairless mice (UV edema, skin fold thickness)
Type: in vivo
Conditions: 5% in Vaseline, skin fold thickness after 30 hrs
Method: However, an ultraviolet test was carried out on hairless mice which also provide information concerning the efficacy of the substances for use as agents for treating sunburn. The backs of the hairless mice were exposed to radiation by an ultraviolet lamp for thirty minutes from a distance of 60 cm, thus causing a cutaneous inflammation. […] The degree of formation of edema was determined by measuring the skin fold thickness after thirty hours. […]
measurement_type: UV Edema in Hairless Mouse Inhibition After 30 hrs

Known UV Edema in Hairless Mouse Inhibition After 30 hrs results, listed for orientation:
INSERT INTO results (compound, result) VALUES
  ('COc1ccc(C(=O)OC(C)(C)C)cc1 [Compound E, Tert.-Butyl Anisate]', '30%'),
  ('COc1ccc(C(=O)OC(C)C)cc1 [Compound C, Isopropyl Anisate]', '38%'),
  ('COc1ccc(C(=O)OCC(C)(C)C)cc1 [Compound F, 2,2-Dimethyl-propyl Anisate]', '35%'),
  ('COc1ccc(C(=O)OCc2ccccc2)cc1 [Compound G, Benzyl Anisate]', '31%'),
  ('CCCCOC(=O)c1ccc(OC)cc1 [Compound D, Butyl Anisate]', '36%');

Entry COC(=O)c1ccc(OC)cc1 [Compound B, Methyl Anisate] — recorded UV Edema in Hairless Mouse Inhibition After 30 hrs = 41%

Entry CCCOC(=O)c1ccc(OC)cc1 [Compound A, n-Propyl Anisate] — recorded UV Edema in Hairless Mouse Inhibition After 30 hrs = 49%

====

test: Orientating test of toxicity; conditions: in vivo; read-out: Orientating Toxicity
measurement_type: LD50

Known LD50 results, listed for orientation:
INSERT INTO assay_data (compound, result) VALUES
  ('COc1ccc(C(=O)OC(C)(C)C)cc1 [Compound E, Tert.-Butyl Anisate]', '> 1000 mg/kg'),
  ('COc1ccc(C(=O)OC(C)C)cc1 [Compound C, Isopropyl Anisate]', '> 1000 mg/kg'),
  ('CCCCOC(=O)c1ccc(OC)cc1 [Compound D, Butyl Anisate]', '> 1000 mg/kg');

Entry CCCOC(=O)c1ccc(OC)cc1 [Compound A, n-Propyl Anisate] — recorded LD50 = > 1000 mg/kg

Entry COC(=O)c1ccc(OC)cc1 [Compound B, Methyl Anisate] — recorded LD50 = > 1000 mg/kg
